# Assayed target: P. falciparum apicoplast DNA polymerase (Pf-apPOL) (Plasmodium falciparum)
# Experiment notes: Fluorescence-based high-throughput DNA polymerase assay (molecular beacon), primary screen and dose-response
# Assay type: biochemical
# Run conditions: conc 40 (unit not given); 90'; DRC-2
Measure name: % inhibition ApPOL 90' (%)

Compound	Measure name	Readout value
O=[N+]([O-])c1cc2c(cc1CN1CCN(c3cccc(Cl)c3)CC1)OCO2	% inhibition ApPOL 90'	45
CN(C)C=C1SCc2ccccc2C1=O	% inhibition ApPOL 90'	26
O=C(c1c[nH]c2ncccc12)N1CCCCCC1 [Molecule 51, O=C(c1c[nH]c2c1cccn2)N1CCCCCC1]	% inhibition ApPOL 90'	45
CN(C)C=CC(=O)c1ccccn1	% inhibition ApPOL 90'	50
CCSc1nnc(NC(=O)Cc2csc(NC(=O)c3cnccn3)n2)s1	% inhibition ApPOL 90'	62

* * *

Reported % inhibition Apo pol 5' is given for each of the following compounds.
# Assayed target: P. falciparum apicoplast DNA polymerase (Pf-apPOL) (Plasmodium falciparum, UniProt Q8ILY1)
# Sequence (Q8ILY1 entry or part of it): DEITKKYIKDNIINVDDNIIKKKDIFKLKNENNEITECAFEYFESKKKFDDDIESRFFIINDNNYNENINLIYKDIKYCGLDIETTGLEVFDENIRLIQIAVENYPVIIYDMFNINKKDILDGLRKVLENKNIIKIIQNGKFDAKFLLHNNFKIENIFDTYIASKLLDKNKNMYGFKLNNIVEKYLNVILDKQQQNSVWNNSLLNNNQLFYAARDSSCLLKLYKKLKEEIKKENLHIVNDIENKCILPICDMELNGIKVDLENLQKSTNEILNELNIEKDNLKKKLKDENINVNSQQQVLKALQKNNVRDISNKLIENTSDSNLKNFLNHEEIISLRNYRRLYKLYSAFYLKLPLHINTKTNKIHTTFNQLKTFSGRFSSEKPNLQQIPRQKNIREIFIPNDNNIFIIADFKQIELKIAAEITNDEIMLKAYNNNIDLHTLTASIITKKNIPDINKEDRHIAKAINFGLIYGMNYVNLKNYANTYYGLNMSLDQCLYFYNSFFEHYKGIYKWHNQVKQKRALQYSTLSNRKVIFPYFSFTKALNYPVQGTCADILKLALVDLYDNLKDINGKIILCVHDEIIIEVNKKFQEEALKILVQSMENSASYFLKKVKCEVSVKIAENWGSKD
# Experiment notes: Fluorescence-based high-throughput DNA polymerase assay (molecular beacon), primary screen and dose-response
# Type: biochemical
# Run conditions: DRC-2; 5'; concentration 2.5

Compound	% inhibition Apo pol 5' / %
Cc1cc(C)c2c(O)nc(SCC(=O)c3ccc(O)c(O)c3)nc2n1 [Molecule 88]	35
O=C1NCCCn2cc(S(=O)(=O)Nc3ccccc3)cc21 [KU0214835]	5.45
O=C1N/C(=N/c2ccccc2Cl)S/C1=C/c1ccc([N+](=O)[O-])o1 [KU0054524]	17
CCCCc1ccc(NC(=O)CSc2nc(O)c(C#N)c(C3CCCCC3)n2)c(C)c1 [Molecule 8]	-2.67
NC(=O)c1cc[n+](CC2=C(C(=O)[O-])N3C(=O)[C@@H](NC(=O)[C@@H](c4ccccc4)S(=O)(=O)[O-])[C@H]3SC2)cc1.[Na+] [Molecule 9]	21
COc1ccc(C)cc1NC(=O)Cn1ccc2c(=O)[nH]ccc21 [Molecule 15, COc1ccc(cc1NC(=O)Cn1ccc2c1cc[nH]c2=O)C]	1.82
COc1cc(Cl)c(C)cc1NC(=O)Cn1ccc2c(=O)[nH]ccc21 [Molecule 33]	-0.547
Cc1ccc2c(C(=O)NCCc3cccnc3)cc(NC(=O)C(C)C)cc2n1 [KU0206096]	-0.312
Cc1cccc(-c2nnc3ccc(NS(=O)(=O)c4ccc(C)c(C)c4)nn23)c1 [Molecule 40]	5
N#Cc1c(C2CCCCC2)nc(Sc2ccc(C(F)(F)F)cc2[N+](=O)[O-])[nH]c1=O [Molecule 20]	3.66
COc1ccc(S(=O)(=O)/N=C2\NC(=O)/C(=C3\C(=O)Nc4ccc([N+](=O)[O-])cc43)S2)cc1 [KU0054985]	4
COc1ccc(-c2c(C(F)(F)F)nn3c(=O)cc(-c4cccc([N+](=O)[O-])c4)[nH]c23)cc1 [Molecule 16]	10
CSC1=C(C#N)C(=C(C#N)C#N)NC(c2ccccc2)=N1 [Molecule 2, CSc1nc([nH]c(=C(C#N)C#N)c1C#N)c1ccccc1]	8
COc1cc(NC(=O)c2ccccc2)c(OC)cc1NC(=O)Cc1cccs1 [KU0032113]	25
Cc1cccc(CC(=O)N2CCc3c(nc4cc(-c5ccccc5)[nH]n4c3=O)C2)c1 [Molecule 12]	7
Cc1cccc2c(C(=O)NC(C)C)cc(N(C)C)nc12 [Molecule 47, CC(NC(=O)c1cc(nc2c1cccc2C)N(C)C)C]	7
CC(NC(=O)Cc1cc(=O)[nH]c(SCc2cccc(Cl)c2)n1)c1ccccc1 (stereo not drawn) [Molecule 67]	0.743
Cc1cc(C)c(O)c(/N=C/c2cc([N+](=O)[O-])cc(Br)c2O)c1 [KU0046272]	7
O=C1C(=Cc2ccncc2)Oc2c1ccc1c2CN(Cc2ccc3c(c2)OCO3)CO1 [KU0199357]	6
Cc1ccc(C2=N/C(=C\c3ccc(I)o3)C(=O)O2)cc1[N+](=O)[O-] [KU0073890]	19
Cc1nn(CC(=O)NCCSCc2ccco2)c(C)c1Br [KU0267182]	6
OC(C#Cc1ccccc1)c1ccco1 (stereo not drawn) [Molecule 95, OC(c1ccco1)C#Cc1ccccc1]	14
O=C(O)CCS(=O)(=O)c1ccc(-c2ccc(S(=O)(=O)CCC(=O)O)cc2)cc1 [Molecule 32]	15
Cc1ccc(NC(=O)C2CCN(C(=O)c3cc4ccsc4[nH]3)CC2)c(Br)c1 [Molecule 14]	11
CS(=O)(=O)c1cccc(C(=O)Nc2nnc(-c3ccno3)o2)c1 [KU0171319]	8
COc1ccc(-c2cc3nc4c(c(=O)n3[nH]2)CCN(C(=O)CCc2ccccc2)C4)cc1 [Molecule 17]	-5.33
COc1ccc(CNC(=O)Cn2nc3c(c2NC(=O)Cc2cccs2)CSC3)cc1 [Molecule 55]	-0.186
O=C(Nc1ccc2c(c1)Cc1cc(NC(=O)c3ccco3)ccc1-2)c1ccco1 [KU0038977]	21
Cc1cc(C)cc(-n2nc3c(c2NC(=O)c2ccco2)CSC3)c1 [KU0055926]	11
CCOc1ccc(/C=C2\N=C(c3cc([N+](=O)[O-])cc([N+](=O)[O-])c3)OC2=O)cc1 [Molecule 97]	20
CCCCOC(=O)CCCCCN1C(=O)C(=Cc2ccc(OC)cc2)SC1=S [Molecule 75]	-2
O=C(Cc1cccs1)N1CCN(c2nc(CN3CCOCC3)cs2)CC1 [Molecule 35]	8
Cn1nc(-c2nnc(-c3ccccc3F)o2)c2c1CCN(C(=O)c1ccccc1Cl)C2 [Molecule 34]	20

Values compiled from paper PMC9090415.
